- test.target: KRAS G12C (Homo sapiens, UniProt P01116, G12C)
- Sequence (P01116 1-188 isoform P01116-2 G12C): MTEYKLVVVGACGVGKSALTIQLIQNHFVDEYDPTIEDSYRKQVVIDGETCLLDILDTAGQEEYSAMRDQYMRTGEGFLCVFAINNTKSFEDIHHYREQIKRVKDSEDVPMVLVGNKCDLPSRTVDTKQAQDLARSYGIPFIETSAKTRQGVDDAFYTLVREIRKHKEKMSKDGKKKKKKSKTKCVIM
- assay.info: Effect on KRAS(G12C) enzyme activity (KRAS G12C/c-Raf binding, Eu/d2 energy transfer)
- cond: 60 min incubation with enzyme; read-out: IC50 value of the compound on KRAS G12C enzyme activity
outcome.measure: pIC50
Quick note: pIC50 means taking -log10 of the concentration in moles per liter.

Challenge: pIC50 of "[2H]C([2H])=Cc1cccc(F)c1-c1nc2c(cc1Cl)c(N1CCN(C(=O)C=C)C[C@@H]1C)nc(=O)n2-c1c(C)ccnc1C(C)C" on KRAS G12C (Homo sapiens, UniProt P01116, G12C)?
Response given: 7.72
